Source listed as patent US20030180744.

Target: T1, KGF (hKGF) (Homo sapiens, UniProt P21781 P21781:32-194)
T1 sequence: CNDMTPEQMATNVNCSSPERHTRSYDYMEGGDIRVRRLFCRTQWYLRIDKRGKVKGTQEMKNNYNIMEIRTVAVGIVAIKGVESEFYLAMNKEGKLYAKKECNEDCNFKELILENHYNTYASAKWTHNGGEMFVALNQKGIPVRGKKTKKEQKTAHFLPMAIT
Experiment: filter; DPBS, 37 C
Conditions: tags: Upstate Biotechnology; label: 32P
Below, each of the binders is paired with its reported Kd value.

# BINDER, Kd
measured = [
    ("49F (ssRNA, 2'-F pyrimidines) RNA: GGGAGGACGAUGCGGGGACUUUGACAGGCAUUGAUUUCGACGUGUUCCCCGUGGCCAGACGACUCGCCCGA", "1 nM"),
    ("60F (ssRNA, 2'-F pyrimidines) RNA: GGGAGGACGAUGCGGUGACAUGGAAUUUUCUACGGGCCCGAUCCUGCCAGCCGUGUGCAGACGACUCGCCCGA", "2.1 nM"),
    ("42N (ssRNA, 2'-NH2 pyrimidines) RNA: GGGAGGACGAUGCGGGGAGACGUAGACGGGAACAUAGAACGAACAUCAACGCGGCCAGACGACUCGCCCGA", "0.78 nM"),
    ("48N (ssRNA, 2'-NH2 pyrimidines) RNA: GGGAGGACGAUGCGGGGCAAAGGAAGUUGGAAUCGGGACUAAGUAGUGUGUGGCCAGACGACUCGCCCGA", "1.34 nM"),
]

Name the recorded Kd for 60N (ssRNA, 2'-NH2 pyrimidines) RNA: GGGAGGACGAUGCGGCCCCUUAGCUCAGUGGUUAGAGCAGACGACUCGCCCGA . 7.38 nM
